Experiment: Pharmacokinetics of apixaban in rats, alone and after multiple doses of almonertinib
Type: in vivo, Sprague-Dawley (SD) rats
Conditions: male, Sprague-Dawley, rat, plasma, po, 0.5 mg/kg; read-out: MRT0-t
READOUT_KIND: MRT last (h)
Numeric only. Scale: h

-- ask Return the recorded MRT last value; entry: COc1ccc(-n2nc(C(N)=O)c3c2C(=O)N(c2ccc(N4CCCCC4=O)cc2)CC3)cc1
-- reply 2.08

---

Assay: Pharmacokinetics of apixaban in rats, alone and after multiple doses of almonertinib
Format: in vivo, Sprague-Dawley (SD) rats
Conditions: male, Sprague-Dawley, rat, plasma, po, 0.5 mg/kg, rats, oral apixaban 0.5 mg/kg after almonertinib 15 mg/kg for nine days (group 7), mean ± SD, n = 6; read-out: t1/2z (converted)
READOUT_KIND: half-life

-- ask Return the recorded half-life value; entry: COc1ccc(-n2nc(C(N)=O)c3c2C(=O)N(c2ccc(N4CCCCC4=O)cc2)CC3)cc1
-- reply 1.81 h

---

Assay: Pharmacokinetics of apixaban in rats, alone and after multiple doses of almonertinib
Assay type: in vivo, Sprague-Dawley (SD) rats
Conditions: male, Sprague-Dawley, rat, plasma, po, 0.25 mg/kg, rats, oral apixaban 0.25 mg/kg after almonertinib 15 mg/kg for nine days (group 8), mean ± SD, n = 6; read-out: CLz/F (converted)
READOUT_KIND: CL/F (mL/min/kg)
Numeric only. Scale: mL/min/kg

-- ask Return the recorded CL/F value; entry: COc1ccc(-n2nc(C(N)=O)c3c2C(=O)N(c2ccc(N4CCCCC4=O)cc2)CC3)cc1
-- reply 2.33

---

Experiment: Pharmacokinetics of apixaban in rats, alone and after multiple doses of almonertinib
Type: in vivo, Sprague-Dawley (SD) rats
Conditions: male, Sprague-Dawley, rat, plasma, po, 0.25 mg/kg, rats, oral apixaban 0.25 mg/kg after almonertinib 15 mg/kg for nine days (group 8), mean ± SD, n = 6
READOUT_KIND: AUC(0-t)
Param answer (str): number followed by unit.

-- ask Return the recorded AUC(0-t) value; entry: COc1ccc(-n2nc(C(N)=O)c3c2C(=O)N(c2ccc(N4CCCCC4=O)cc2)CC3)cc1
-- reply 1870 ng·h/mL

---

Assay: Pharmacokinetics of rivaroxaban in rats, alone and after multiple doses of almonertinib
Format: in vivo, Sprague-Dawley (SD) rats
Conditions: male, Sprague-Dawley, rat, plasma; rats, oral rivaroxaban 2 mg/kg alone (group 1), mean ± SD, n = 6; read-out: AUC0-t
READOUT_KIND: AUC(0-t)
Param answer (str): number followed by unit.

-- ask Return the recorded AUC(0-t) value; entry: O=C(NC[C@H]1CN(c2ccc(N3CCOCC3=O)cc2)C(=O)O1)c1ccc(Cl)s1 [rivaroxaban, Rivaroxaban]
-- reply 764 ng·h/mL

---

Assay: Pharmacokinetics of rivaroxaban in rats, alone and after multiple doses of almonertinib
Assay type: in vivo, Sprague-Dawley (SD) rats
Conditions: male, Sprague-Dawley, rat, plasma, po, 2 mg/kg, rats, oral rivaroxaban 2 mg/kg alone (group 1), mean ± SD, n = 6
READOUT_KIND: AUC(0-inf)
Param answer (str): number followed by unit.

-- ask Return the recorded AUC(0-inf) value; entry: O=C(NC[C@H]1CN(c2ccc(N3CCOCC3=O)cc2)C(=O)O1)c1ccc(Cl)s1
-- reply 797 ng·h/mL

---

Experiment: Pharmacokinetics of almonertinib in rats, alone and after multiple doses of rivaroxaban or apixaban
Type: in vivo, Sprague-Dawley (SD) rats
Conditions: male, Sprague-Dawley, rat, plasma, po, 15 mg/kg, rats, oral almonertinib 15 mg/kg after rivaroxaban 2 mg/kg for five days (group 9), mean ± SD, n = 6
READOUT_KIND: Cmax (ng/mL)
Numeric only. Scale: ng/mL

-- ask Return the recorded Cmax value; entry: C=CC(=O)Nc1cc(Nc2nccc(-c3cn(C4CC4)c4ccccc34)n2)c(OC)cc1N(C)CCN(C)C
-- reply 51.4

Reference source: paper PMC10582335
